Molecular target: abc isoform of human TMEM16A channel expressed in CHO cells (Homo sapiens, UniProt Q5XXA6, DEL476-501)
Sequence (Q5XXA6 with tags, fused parts or gaps isoform Q5XXA6-5 DEL539-564): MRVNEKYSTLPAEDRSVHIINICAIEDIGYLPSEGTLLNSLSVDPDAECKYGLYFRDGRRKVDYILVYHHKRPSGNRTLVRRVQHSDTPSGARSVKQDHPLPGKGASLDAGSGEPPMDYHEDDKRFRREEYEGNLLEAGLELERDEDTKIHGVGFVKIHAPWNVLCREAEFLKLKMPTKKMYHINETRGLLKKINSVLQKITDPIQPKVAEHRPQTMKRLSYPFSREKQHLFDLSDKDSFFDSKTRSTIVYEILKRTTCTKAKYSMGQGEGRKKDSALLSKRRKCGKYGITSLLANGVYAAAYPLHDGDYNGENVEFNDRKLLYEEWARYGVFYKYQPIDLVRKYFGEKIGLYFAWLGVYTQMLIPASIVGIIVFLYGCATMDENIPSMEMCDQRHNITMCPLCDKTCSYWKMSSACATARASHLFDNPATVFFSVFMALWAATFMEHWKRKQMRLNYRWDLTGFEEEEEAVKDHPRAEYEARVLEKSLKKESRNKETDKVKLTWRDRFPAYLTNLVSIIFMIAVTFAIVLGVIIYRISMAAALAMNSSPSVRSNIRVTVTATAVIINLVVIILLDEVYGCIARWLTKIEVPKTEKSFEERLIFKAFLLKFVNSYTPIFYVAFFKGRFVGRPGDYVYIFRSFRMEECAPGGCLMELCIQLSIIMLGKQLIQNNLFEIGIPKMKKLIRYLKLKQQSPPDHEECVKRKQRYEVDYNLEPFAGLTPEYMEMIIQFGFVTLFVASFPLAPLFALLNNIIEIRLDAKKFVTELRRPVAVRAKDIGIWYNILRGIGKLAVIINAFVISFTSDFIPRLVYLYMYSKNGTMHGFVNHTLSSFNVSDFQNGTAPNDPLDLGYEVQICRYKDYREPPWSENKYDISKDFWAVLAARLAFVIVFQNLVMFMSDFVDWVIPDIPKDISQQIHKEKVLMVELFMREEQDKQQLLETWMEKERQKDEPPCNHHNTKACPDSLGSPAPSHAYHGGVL
Assay: Automated patch clamping (QPatch) assay to measure TMEM16A activity in whole-cell
Conditions: CHO cells expressing human TMEM16A (abc), whole-cell automated patch clamp, Hill fit; read-out: TMEM16A QPATCH assay EC50 V3 EC50
pEC50: −log10 of the molar value.

| compound | pEC50 |
| --- | --- |
| CCC(CC)NC(=O)c1cnc(-c2cccc(-c3cc(C(=O)NCCSC(C)(C)C)n[nH]3)c2)o1 | 6.89 |
| CCC(CC)NC(=O)c1cnc(-c2cccc(-c3cc(C(=O)NC(COC)C(C)C)n[nH]3)c2)o1 (centres unmarked) | 6.72 |
| CCC(CC)NC(=O)c1cnc(-c2cccc(-c3cc(C(=O)N[C@@H](CC(C)C)C(=O)NCC(=O)OC(C)(C)C)n[nH]3)c2)o1 | 6.19 |
| CCC(CC)NC(=O)c1cnc(-c2cccc(-c3cc(C(=O)N[C@H](CCSC)C(=O)OC)n[nH]3)c2)o1 | 6.10 |
| CCOC(=O)[C@@H](NC(=O)c1cc(-c2cccc(-c3ncc(C(=O)NC(CC)CC)o3)c2)nn1CCOP(=O)(OCC)OCC)C(C)C | 6.21 |
| COC(=O)[C@H](CC(C)C)NC(=O)c1cc(-c2cccc(-c3ncc(C(=O)N[C@@H](CC(C)C)C(=O)OC)o3)c2)[nH]n1 | 6.57 |
| CCC(CC)NC(=O)c1cnc(-c2cccc(-c3nc(C(=O)NC(CC)CC)n(CCNCc4ccccc4)n3)c2)o1 | 6.48 |
| CCC(CC)NC(=O)c1cnc(-c2cccc(-c3cc(C(=O)NC(COC)C4CC4)n[nH]3)c2)o1 (centres unmarked) | 6.52 |
| COC(=O)[C@@H](CSC)NC(=O)c1cnc(-c2cccc(-c3cc(C(=O)N[C@@H](C)C4CC4)n[nH]3)c2)o1 | 6.59 |
| CCOC(=O)[C@@H](NC(=O)c1cnc(-c2cccc(-c3nc(C(=O)NC(C4CC4)C(F)(F)F)n[nH]3)c2)o1)C(C)C (some centres unmarked) | 7.10 |
| CCOC(=O)[C@H](NC(=O)c1cnc(-c2cccc(-c3cc(C(=O)NC(CC)CC)n[nH]3)c2)o1)c1ccccc1 | 6.21 |
| CCC(CC)NC(=O)c1cnc(-c2cccc(-c3cc(C(=O)Nc4cccc(OC(C)C)c4)n[nH]3)c2)o1 | 6.72 |
| CCC(CC)NC(=O)c1cnc(-c2cccc(-c3nc(C(=O)NC(CC)CC)n(CCOCCOCCOC)n3)c2)o1 | 6.00 |
| CCC(CC)NC(=O)c1cnc(-c2cccc(-c3cc(C(=O)NCc4c(F)cccc4F)n[nH]3)c2)o1 | 6.66 |
